The entries below are paired with their reported pIC50.
# System: K86415-001-R-J1-PDC complex spheroids, viability
# MEASUREMENT_DESCRIPTION: Anticancer human tumor K86415-001-R-J1-PDC patient-derived lung adenocarcinoma cell line growth inhibition [RAS]
# CONDITION_INFO: curve of first compound; second compound 0.1 µM
# Text: RAS pathway inhibitors in Combinations in Complex Spheroids A high-throughput screen of multi-cell type tumor spheroids was designed to identify active combinations of RAS pathway inhibitors and targeted small molecules. Complex spheroids include a stromal component modeled by human endothelial cells (HUVEC) and fibroblasts modeled by human mesenchymal stem cells (MSCs). […] Compounds. […] If the clinical Cmax for an agent had not been determined, the highest concentration tested was 10 microM. […]
pIC50: −log10 of the molar value.

Examples from the recorded data:
CC1(C)CCC(Nc2ncc(C(F)(F)F)c(-c3c[nH]c4c(P(C)(C)=O)c(C#N)ccc34)n2)CN1 (stereo not drawn) + C#Cc1c(F)ccc2cc(O)cc(-c3ncc4c(N5CC6CCC(C5)N6)nc(OCC56CCCN5CC(F)C6)nc4c3F)c12
< 6.52
NC1c2ccccc2OC12CCN(c1cnc3c(N4CCCc5ncccc54)n[nH]c3n1)CC2 (stereo not drawn) + C#Cc1c(F)ccc2cc(O)cc(-c3ncc4c(N5CC6CCC(C5)N6)nc(OCC56CCCN5CC(F)C6)nc4c3F)c12
> 7.50

Data request, read-out pIC50, for CC(C)NCC(C(=O)N1CCN(c2ncnc3c2C(C)CC3O)CC1)c1ccc(Cl)cc1 (stereo not drawn) + C#Cc1c(F)ccc2cc(O)cc(-c3ncc4c(N5CC6CCC(C5)N6)nc(OCC56CCCN5CC(F)C6)nc4c3F)c12
5.14

----------
# Test system: K86415-001-R-J1-PDC complex spheroids, viability
# MEASUREMENT_DESCRIPTION: Anticancer human tumor K86415-001-R-J1-PDC cell line growth inhibition [RAS];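 also: spheroids exposed to agents for seven days before readout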
# CONDITION_INFO: second compound 0.000949 µM; first compound 0.1 µM; stronger effect = lower value
ASSAY_ENDPOINT: viability, T/C (%)
Reply numerically in %, unit not repeated.

Use the examples below as a reference point.
CC(C)n1nc(-c2ccc3oc(N)nc3c2)c2c(N)ncnc21 + CCn1c(-c2cc(N3CCN(C)CC3)cnc2C(C)OC)c2c3cc(ccc31)-c1csc(n1)CC(NC(=O)C1CC1C)C(=O)N1CCCC(N1)C(=O)OCC(C)(C)C2
20.4
Cc1nc(N2CCC3(CC2)COC(C)C3N)c(CO)nc1Sc1ccnc(N)c1Cl (stereo unspecified) + CCn1c(-c2cc(N3CCN(C)CC3)cnc2C(C)OC)c2c3cc(ccc31)-c1csc(n1)CC(NC(=O)C1CC1C)C(=O)N1CCCC(N1)C(=O)OCC(C)(C)C2
20.5
O=C(c1ccc(F)c(F)c1Nc1ccc(I)cc1F)N1CC(O)([C@@H]2CCCCN2)C1 + CCn1c(-c2cc(N3CCN(C)CC3)cnc2C(C)OC)c2c3cc(ccc31)-c1csc(n1)CC(NC(=O)C1CC1C)C(=O)N1CCCC(N1)C(=O)OCC(C)(C)C2
14.3
C=CC(=O)Nc1cc(Nc2nccc(-c3cn(C)c4ccccc34)n2)c(OC)cc1N(C)CCN(C)C + CCn1c(-c2cccnc2C(C)OC)c2c3cc(ccc31)N1CCOC(CC(NC(=O)C(C(C)C)N(C)C(=O)C3(F)CCN(C(=O)C#CC(C)(C)N(C)C)CC3)C(=O)N3CCCC(N3)C(=O)OCC(C)(C)C2)C1
25.6
Cc1nc(N2CCC3(CC2)COC(C)C3N)c(CO)nc1Sc1ccnc(N)c1Cl (stereo unspecified) + CCn1c(-c2cccnc2C(C)OC)c2c3cc(ccc31)N1CCOC(CC(NC(=O)C(C(C)C)N(C)C(=O)C3(F)CCN(C(=O)C#CC(C)(C)N(C)C)CC3)C(=O)N3CCCC(N3)C(=O)OCC(C)(C)C2)C1
16.5

Can you share its viability, T/C? I mean this compound: CC(=O)OC12COC1CC(O)C1(C)C(=O)C(O)C3=C(C)C(OC(=O)C(O)C(NC(=O)OC(C)(C)C)c4ccccc4)CC(O)(C(OC(=O)c4ccccc4)C21)C3(C)C (stereo unspecified) + CCn1c(-c2cc(N3CCN(C)CC3)cnc2C(C)OC)c2c3cc(ccc31)-c1csc(n1)CC(NC(=O)C1CC1C)C(=O)N1CCCC(N1)C(=O)OCC(C)(C)C2
21.5

----------
# System: K86415-001-R-J1-PDC complex spheroids, viability
# MEASUREMENT_DESCRIPTION: Anticancer human tumor K86415-001-R-J1-PDC cell line growth inhibition [RAS];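 also: spheroids exposed to agents for seven days before readout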
# CONDITION_INFO: curve of first compound; second compound 0.1 µM
ASSAY_ENDPOINT: IC50

Use these answered entries as a reference point.
C[C@@H](NC(=O)c1ncnc(N)c1Cl)c1ncc(C(=O)Nc2cc(C(F)(F)F)c(Cl)cn2)s1 + C=CC(=O)N1CCN(c2nc(OCC3CCCN3C)nc3c(F)c(-c4nc(N)cc(C)c4C(F)(F)F)c(Cl)cc23)C(C)C1
< 31.6 nM
CC1(O)CCCC1n1c(=O)c(C(F)F)cc2cnc(NC3CCN(S(C)(=O)=O)CC3)nc21 (stereo unspecified) + C=CC(=O)N1CCN(c2nc(OCC3CCCN3C)nc3c(F)c(-c4nc(N)cc(C)c4C(F)(F)F)c(Cl)cc23)C(C)C1
< 31.6 nM
Nc1ccn(C2OC(CO)C(O)C2(F)F)c(=O)n1 (stereo unspecified) + C=CC(=O)N1CCN(c2nc(OCC3CCCN3C)nc3c(F)c(-c4nc(N)cc(C)c4C(F)(F)F)c(Cl)cc23)C(C)C1
< 3.16 nM

Query: IC50; subject: CCC(CC)c1cc(NC2CCC(N)C2)n2nccc2n1 (stereo unspecified) + C=CC(=O)N1CCN(c2nc(OCC3CCCN3C)nc3c(F)c(-c4nc(N)cc(C)c4C(F)(F)F)c(Cl)cc23)C(C)C1
< 31.6 nM

Subsequent entry: O=C(c1ccc(F)c(F)c1Nc1ccc(I)cc1F)N1CC(O)([C@@H]2CCCCN2)C1 + C=CC(=O)N1CCN(c2nc(OCC3CCCN3C)nc3c(F)c(-c4nc(N)cc(C)c4C(F)(F)F)c(Cl)cc23)C(C)C1
< 3.16 nM

And C=CC(=O)N1CCN(c2nc(OCC3CCCN3C)nc3c(F)c(-c4nc(N)cc(C)c4C(F)(F)F)c(Cl)cc23)C(C)C1 (stereo unspecified) + C#Cc1c(F)ccc2cc(O)cc(-c3ncc4c(N5CC6CCC(C5)N6)nc(OCC56CCCN5CC(F)C6)nc4c3F)c12 ?
< 3.16 nM

----------
# Test system: K86415-001-R-J1-PDC complex spheroids, viability
# MEASUREMENT_DESCRIPTION: Anticancer human tumor K86415-001-R-J1-PDC cell line growth inhibition [RAS];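 also: spheroids exposed to agents for seven days before readout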
# CONDITION_INFO: second compound 0.316 µM; first compound 10 µM; stronger effect = lower value
ASSAY_ENDPOINT: viability, T/C (%)
Give the number; % is assumed, so skip it.

NC1c2ccccc2OC12CCN(c1cnc3c(N4CCCc5ncccc54)n[nH]c3n1)CC2 (centres undefined) + C=CC(=O)N1CCN(c2nc(OCC3CCCN3C)nc3c(F)c(-c4nc(N)cc(C)c4C(F)(F)F)c(Cl)cc23)C(C)C1
5.1
CCC(CC)c1cc(NC2CCC(N)C2)n2nccc2n1 (centres undefined) + C=CC(=O)N1CCN(c2nc(OCC3CCCN3C)nc3c(F)c(-c4nc(N)cc(C)c4C(F)(F)F)c(Cl)cc23)C(C)C1
3.41
CC1(O)CCCC1n1c(=O)c(C(F)F)cc2cnc(NC3CCN(S(C)(=O)=O)CC3)nc21 (centres undefined) + C=CC(=O)N1CCN(c2nc(OCC3CCCN3C)nc3c(F)c(-c4nc(N)cc(C)c4C(F)(F)F)c(Cl)cc23)C(C)C1
5.89

Now look at this one.
// viability, T/C lookup, key: CC(C)NCC(C(=O)N1CCN(c2ncnc3c2C(C)CC3O)CC1)c1ccc(Cl)cc1 (centres undefined) + C=CC(=O)N1CCN(c2nc(OCC3CCCN3C)nc3c(F)c(-c4nc(N)cc(C)c4C(F)(F)F)c(Cl)cc23)C(C)C1
4.04

----------
# Tested on: K86415-001-R-J1-PDC complex spheroids, viability
# MEASUREMENT_DESCRIPTION: Anticancer human tumor K86415-001-R-J1-PDC cell line growth inhibition [RAS];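 also: spheroids exposed to agents for seven days before readout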
# CONDITION_INFO: second compound 10 µM; first compound 0.1 µM; stronger effect = lower value
ASSAY_ENDPOINT: viability, T/C (%)
Your answer is read as %, so omit the unit and give the number.

NC1c2ccccc2OC12CCN(c1cnc3c(N4CCCc5ncccc54)n[nH]c3n1)CC2 (centres undefined) + C#Cc1c(F)ccc2cc(O)cc(-c3ncc4c(N5CC6CCC(C5)N6)nc(OCC56CCCN5CC(F)C6)nc4c3F)c12
4.42

Given CCN1CCN(Cc2ccc(Nc3ncc(F)c(-c4cc(F)c5nc(C)n(C(C)C)c5c4)n3)nc2)CC1 + C#Cc1c(F)ccc2cc(O)cc(-c3ncc4c(N5CC6CCC(C5)N6)nc(OCC56CCCN5CC(F)C6)nc4c3F)c12 , state its recorded viability, T/C.
19

Field entry: CC(=O)OC12COC1CC(O)C1(C)C(=O)C(O)C3=C(C)C(OC(=O)C(O)C(NC(=O)OC(C)(C)C)c4ccccc4)CC(O)(C(OC(=O)c4ccccc4)C21)C3(C)C (centres undefined) + C#Cc1c(F)ccc2cc(O)cc(-c3ncc4c(N5CC6CCC(C5)N6)nc(OCC56CCCN5CC(F)C6)nc4c3F)c12
19.1
